# Run Description: Toxic effects in rats
# Assay type: in vivo
# Condition Context: rat, in vivo, 0.32 mg/300 gm, read-out: safety factor relative to a 70 kg person
# Text: Relative to a 70 kg person, this represents a safety factor of 74.7 and 112 respectively.
Measurement Name: safety factor
Could you keep your reply to the number by itself?

**Query** Please list safety factor recorded for the molecule O=P(O)(O)C(O)(c1ccccc1)P(=O)(O)O
**Result** 74.7
